Source listed as ChEMBL document CHEMBL1909046.

- assay_system: Melanocortin receptor 5 (Homo sapiens); further: in other assays of this panel Not Active means under 50% inhibition at 10 µM
- Sequence (P33032 whole entry): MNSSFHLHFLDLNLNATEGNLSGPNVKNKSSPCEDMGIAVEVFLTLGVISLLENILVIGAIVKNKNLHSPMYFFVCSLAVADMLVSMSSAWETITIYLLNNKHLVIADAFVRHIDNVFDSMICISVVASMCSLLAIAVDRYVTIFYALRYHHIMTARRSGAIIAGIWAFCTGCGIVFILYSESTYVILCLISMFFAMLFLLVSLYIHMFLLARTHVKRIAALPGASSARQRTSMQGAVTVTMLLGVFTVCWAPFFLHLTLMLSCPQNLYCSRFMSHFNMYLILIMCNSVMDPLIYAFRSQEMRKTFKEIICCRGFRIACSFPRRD
- Assay type: cell membranes, HEK293, Membrane
- experimental_conditions: hek293
metric: IC50

NCC[C@H](O)C(=O)N[C@@H]1C[C@H](N)[C@@H](O[C@H]2O[C@H](CN)[C@@H](O)[C@H](O)[C@H]2O)[C@H](O)[C@H]1O[C@H]1O[C@H](CO)[C@@H](O)[C@H](N)[C@H]1O
Not Active
CCCCCCCCCc1ccc(O)cc1
Not Active
Nc1ccc(S(=O)(=O)Nc2ccnn2-c2ccccc2)cc1
Not Active

---

- measurement_description: DRUGMATRIX: Platelet-Derived Growth Factor (PDGF) radioligand binding (ligand: [125I] PDGF)
- Format: cell-based
- experimental_conditions: nih3t3; Not Active = under 50% inhibition at 10 µM
metric: IC50

Solved cases below.
CC(C)(Oc1ccc(CCNC(=O)c2ccc(Cl)cc2)cc1)C(=O)O [BEZAFIBRATE]
Not Active
Oc1c(Cl)cc(Cl)cc1Sc1cc(Cl)cc(Cl)c1O [BITHIONOL]
Not Active
Fc1ccc([C@@H]2CCNC[C@H]2COc2ccc3c(c2)OCO3)cc1 [PAROXETINE]
Not Active
CCC[C@@H]1C[C@@H](C(=O)N[C@@H]([C@H]2O[C@H](SC)[C@H](O)[C@@H](O)[C@H]2O)[C@@H](C)O)N(C)C1 [LINCOMYCIN]
Not Active
NCCCC[C@H](N[C@@H](CCc1ccccc1)C(=O)O)C(=O)N1CCC[C@H]1C(=O)O [LISINOPRIL ANHYDROUS]
Not Active

The record that follows has no IC50 shown yet.
Problem: Please report the recorded IC50 for CC(=O)[C@@]1(O)CC[C@H]2[C@@H]3C[C@H](C)C4=CC(=O)C=C[C@]4(C)[C@@]3(F)[C@@H](O)C[C@@]21C [FLUOROMETHOLONE] .
Solution: Not Active

---

Provide the recorded IC50 for the entries that follow.
- assay_system: 5-hydroxytryptamine receptor 1B (Rattus norvegicus, UniProt P28564); further: in other assays of this panel Not Active means under 50% inhibition at 10 µM
- Sequence (P28564 whole entry): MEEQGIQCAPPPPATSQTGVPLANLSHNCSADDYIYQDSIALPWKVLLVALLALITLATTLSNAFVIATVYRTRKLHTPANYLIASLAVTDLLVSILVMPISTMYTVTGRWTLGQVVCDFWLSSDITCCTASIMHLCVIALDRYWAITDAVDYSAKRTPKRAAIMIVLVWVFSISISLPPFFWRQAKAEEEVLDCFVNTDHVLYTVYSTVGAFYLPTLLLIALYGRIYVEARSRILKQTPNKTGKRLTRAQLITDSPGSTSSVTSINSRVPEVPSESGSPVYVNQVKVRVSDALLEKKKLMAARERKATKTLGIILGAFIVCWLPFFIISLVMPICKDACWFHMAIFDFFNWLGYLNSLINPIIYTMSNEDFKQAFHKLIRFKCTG
- Format: cell membranes, Wistar, Cerebral cortex, Membrane
- experimental_conditions: read-out: IC50
Answers are plain numbers, in nM.

Solved cases below.
CN1C[C@H](C(=O)N[C@]2(C)O[C@@]3(O)[C@@H]4CCCN4C(=O)[C@H](Cc4ccccc4)N3C2=O)C=C2c3cccc4[nH]cc(c34)C[C@H]21 [ERGOTAMINE]
0.201
COc1ccc(CCN2CCC(Nc3nc4ccccc4n3Cc3ccc(F)cc3)CC2)cc1 [ASTEMIZOLE]
1390
Clc1ccccc1C(c1ccccc1)(c1ccccc1)n1ccnc1 [CLOTRIMAZOLE]
27300

The record that follows has no IC50 shown yet.
Problem: Please report the recorded IC50 for CNCCC=C1c2ccccc2CCc2ccccc21 [NORTRIPTYLINE] .
Solution: 3200

---

- assay_system: UniProt:P11509
- Sequence (P11509 whole entry): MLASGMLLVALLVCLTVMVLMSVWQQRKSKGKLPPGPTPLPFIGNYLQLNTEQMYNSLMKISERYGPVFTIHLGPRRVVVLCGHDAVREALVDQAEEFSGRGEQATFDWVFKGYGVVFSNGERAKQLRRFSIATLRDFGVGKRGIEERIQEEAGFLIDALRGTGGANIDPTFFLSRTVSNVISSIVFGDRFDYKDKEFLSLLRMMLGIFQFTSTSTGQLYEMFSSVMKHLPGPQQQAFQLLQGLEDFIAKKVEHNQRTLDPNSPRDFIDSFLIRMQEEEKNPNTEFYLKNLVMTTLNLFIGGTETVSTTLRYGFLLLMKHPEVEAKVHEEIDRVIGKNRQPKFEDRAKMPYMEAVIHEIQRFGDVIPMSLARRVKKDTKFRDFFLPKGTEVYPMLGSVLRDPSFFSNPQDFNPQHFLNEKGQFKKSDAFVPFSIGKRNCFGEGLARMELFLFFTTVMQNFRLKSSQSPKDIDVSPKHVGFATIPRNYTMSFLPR
- experimental_conditions: bti-tn-5b1-4
metric: Ki

Solved cases below.
CC(=O)[C@@]1(O)CC[C@H]2[C@@H]3C[C@H](C)C4=CC(=O)C=C[C@]4(C)[C@@]3(F)[C@@H](O)C[C@@]21C [FLUOROMETHOLONE]
Not Active
Oc1c(I)cc(I)c2cccnc12 [IODOQUINOL]
Not Active
CC1(C)S[C@@H]2[C@H](NC(=O)[C@H](NC(=O)N3CCNC3=O)c3ccccc3)C(=O)N2[C@H]1C(=O)O [AZLOCILLIN]
Not Active
CC[C@H]1OC(=O)[C@H](C)[C@@H](O[C@H]2C[C@@](C)(OC)[C@@H](O)[C@H](C)O2)[C@H](C)[C@@H](O[C@@H]2O[C@H](C)C[C@H](N(C)C)[C@H]2O)[C@](C)(O)C[C@@H](C)/C(=N\OCOCCOC)[C@H](C)[C@@H](O)[C@]1(C)O [ROXITHROMYCIN]
Not Active
Clc1ccc(C(c2ccccc2Cl)C(Cl)Cl)cc1 (stereo unspecified) [MITOTANE]
Not Active
NC(CO)(CO)CO [TROMETHAMINE]
Not Active
CCCc1cc(=O)[nH]c(=S)[nH]1 [PROPYLTHIOURACIL]
Not Active
CC(C)[C@H](N)C(=O)OCCOCn1cnc2c(=O)nc(N)[nH]c21 [VALACYCLOVIR]
Not Active
COc1c(N2CCNC(C)C2)c(F)cc2c(=O)c(C(=O)O)cn(C3CC3)c12 (stereo unspecified) [GATIFLOXACIN]
Not Active
Cc1ccccc1N1CCN(CCc2nnc3n2CCCC3)CC1 [DAPIPRAZOLE]
Not Active

For every item below, please supply its Ki.
1. NS(=O)(=O)c1cc2c(cc1Cl)NCNS2(=O)=O [HYDROCHLOROTHIAZIDE]
2. CCCC[C@@H](CC)COC(=O)c1ccccc1C(=O)OC[C@@H](CC)CCCC [BIS(2-ETHYLHEXYL)PHTHALATE]
3. Oc1cccc2cccnc12 [OXYQUINOLINE]
4. CC=CC(=O)N(CC)c1ccccc1C
5. CN(N=O)C(=O)N[C@@H](C=O)[C@@H](O)[C@H](O)[C@H](O)CO [STREPTOZOCIN]
6. COc1ccc2c(c1)c(CC(=O)OCC(=O)O)c(C)n2C(=O)c1ccc(Cl)cc1 [ACEMETACIN]
7. CC1(C)[C@H]2CC[C@]1(C)C(=O)C2 [(-)-CAMPHOR]

Solution:
1. Not Active
2. Not Active
3. Not Active
4. Not Active
5. Not Active
6. Not Active
7. Not Active

For every item below, please supply its Ki.
1. C=CC[C@@H]1/C=C(\C)C[C@H](C)C[C@H](OC)[C@H]2O[C@@](O)(C(=O)C(=O)N3CCCC[C@H]3C(=O)O[C@H](/C(C)=C/[C@@H]3CC[C@@H](O)[C@H](OC)C3)[C@H](C)[C@@H](O)CC1=O)[C@H](C)C[C@@H]2OC [TACROLIMUS ANHYDROUS]
2. CC[N+](CC)(CC)CCOc1cccc(OCC[N+](CC)(CC)CC)c1OCC[N+](CC)(CC)CC.[I-].[I-].[I-] [GALLAMINE TRIETHIODIDE]
3. CC(C)(C)NC(=O)[C@@H]1CN(Cc2cccnc2)CCN1C[C@@H](O)C[C@@H](Cc1ccccc1)C(=O)N[C@H]1c2ccccc2C[C@H]1O.O
4. Nc1nc2c(ncn2COC(CO)CO)c(=O)[nH]1 [GANCICLOVIR]
5. CCCCOC(=O)c1ccc(N)cc1 [BUTAMBEN]

Solution:
["Not Active", "Not Active", "Not Active", "Not Active", "Not Active"]

For every item below, please supply its Ki.
1. CC(=O)CCCCn1c(=O)c2c(ncn2C)n(C)c1=O [PENTOXIFYLLINE]
2. CSc1ccc2c(c1)N(CCC1CCCCN1C)c1ccccc1S2 (stereo unspecified) [THIORIDAZINE]
3. CO[C@@H]1[C@@H](O[C@@H]2O[C@H](C)[C@@H](O[C@H]3C[C@@](C)(O)[C@@H](OC(=O)CC(C)C)[C@H](C)O3)[C@H](N(C)C)[C@H]2O)[C@@H](CC=O)C[C@@H](C)[C@@H](O)/C=C/C=C/C[C@@H](C)OC(=O)C[C@H]1O [KITASAMYCIN]
4. N#C[C@H](O[C@@H]1O[C@H](CO[C@@H]2O[C@H](CO)[C@@H](O)[C@H](O)[C@H]2O)[C@@H](O)[C@H](O)[C@H]1O)c1ccccc1 [AMYGDALIN]
5. COc1ccc(C(CN(C)C)C2(O)CCCCC2)cc1 (stereo unspecified) [VENLAFAXINE]

Solution:
1: Not Active; 2: Not Active; 3: Not Active; 4: Not Active; 5: Not Active
